# Target Desc: Androgen receptor (Homo sapiens, UniProt P10275)
# Sequence (P10275 whole entry): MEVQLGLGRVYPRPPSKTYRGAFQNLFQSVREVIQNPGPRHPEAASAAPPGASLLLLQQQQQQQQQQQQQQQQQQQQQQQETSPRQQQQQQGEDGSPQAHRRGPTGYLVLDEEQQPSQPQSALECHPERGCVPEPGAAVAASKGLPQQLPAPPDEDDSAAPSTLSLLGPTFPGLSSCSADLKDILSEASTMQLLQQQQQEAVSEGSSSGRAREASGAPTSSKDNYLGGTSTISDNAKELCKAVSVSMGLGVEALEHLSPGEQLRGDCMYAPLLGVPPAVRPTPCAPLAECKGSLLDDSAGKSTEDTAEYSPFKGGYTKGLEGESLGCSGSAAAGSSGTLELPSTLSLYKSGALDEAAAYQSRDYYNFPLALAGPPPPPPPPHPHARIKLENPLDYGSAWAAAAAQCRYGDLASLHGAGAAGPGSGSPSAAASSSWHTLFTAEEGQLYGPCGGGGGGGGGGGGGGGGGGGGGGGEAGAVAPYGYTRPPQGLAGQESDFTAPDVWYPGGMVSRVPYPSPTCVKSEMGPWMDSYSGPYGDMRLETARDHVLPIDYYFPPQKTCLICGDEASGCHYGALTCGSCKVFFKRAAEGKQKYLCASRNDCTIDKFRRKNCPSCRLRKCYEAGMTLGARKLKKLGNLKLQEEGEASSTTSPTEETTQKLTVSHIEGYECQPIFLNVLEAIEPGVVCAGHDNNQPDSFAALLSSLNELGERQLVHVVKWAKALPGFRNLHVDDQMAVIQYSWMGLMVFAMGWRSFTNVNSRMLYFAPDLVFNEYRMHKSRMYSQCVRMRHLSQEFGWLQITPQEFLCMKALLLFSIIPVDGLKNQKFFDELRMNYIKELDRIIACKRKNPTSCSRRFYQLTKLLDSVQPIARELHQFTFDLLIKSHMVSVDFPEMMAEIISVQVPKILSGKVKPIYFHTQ
# Assay Summary: Antagonist activity at androgen receptor in human MDA-MB-453 cells coexpressing MMTV-ARE reporter gene assessed as inhibition of DHT-induced response
# Format: functional, cell-based
pIC50: −log10 of the molar value.
Reported Endpoint: pIC50

>>> value("CC1(C)CN(Cc2ccccc2)C(=O)[C@@H]1Oc1ccc(C#N)c(C(F)(F)F)c1")
7.42
>>> value("N#Cc1ccc(Oc2ccc(F)cc2F)cc1C(F)(F)F")
7.22
>>> value("CC1(C)CN(Cc2ccccc2F)C(=O)[C@@H]1Oc1ccc(C#N)c(C(F)(F)F)c1")
7.36
>>> value("CSc1ccc(CN2CC(C)(C)[C@@H](Oc3ccc(C#N)c(C(F)(F)F)c3)C2=O)cc1")
7.55
